# tested system: SLA-1*04:01 (Sus scrofa)
# assay overview: pSLA binding affinity, modified ELISA
# Parameters: species or system swine
# run conditions: ELISA, 1–2 nM heavy chain, 15 nM hβ2m, peptide 0 to 13 μM, two nights at RT, average of successful measurements, read-out: Aff. (nM), measured affinity (average equilibrium dissociation constant)
Ends that are not written are not given here.
property name: Kd (nM)
The response must be a number in nM with no trailing unit.

# annotated cases, reported Kd shown
• RTAPNEIAF [ID24] = 4
• RTAIGTPVY [ID17] = 57
• TTMPSGFELY [ID43] = 576
• NISAVFQTYY [ID23] = 413
• ASDWFAPRY [ID25] = 2
• KVAHNLGFYF [ID10] = 122
• KVAHNLGFY [ID21] = 4
• QVYERGCRWY [ID7] = 682

Lookup: What Kd value was documented for this sequence, LSDSGRISY [ID19] ?
Found: 10

###

# tested system: SLA-2*04:01 (Sus scrofa, UniProt Q8MHU4)
# assay overview: pSLA binding affinity, modified ELISA
# Design: species or system swine
# run conditions: ELISA as above, only one successful affinity measurement, read-out: Aff. (nM), measured affinity (equilibrium dissociation constant)
Ends that are not written are not given here.
Decide using Kd alone. Strictly below 2000 nM: true. Equal to or above 2000 nM: false.

Some solved entries appear below for comparison.
- LSDSGRISY [ID19]: false
- TTMPSGFELY [ID43]: true
- KIFRFGSHKW [ID22]: true
- SSEGHLTSVY [ID34]: true
- ATQEWLSRMW [ID31]: false

Lookup: Consider the sequence QVYERGCRWY [ID7] . Is its Kd strictly less than 2000 nM?
Found: true

Lookup: Consider the sequence RTAIGTPVY [ID17] . Is its Kd strictly less than 2000 nM?
Found: true

###

# tested system: SLA-2*04:01 (Sus scrofa)
# assay overview: pSLA binding affinity, modified ELISA
# Design: species or system swine
# run conditions: ELISA, 1–2 nM heavy chain, 15 nM hβ2m, peptide 0 to 13 μM, two nights at RT, average of successful measurements, read-out: Aff. (nM), measured affinity (average equilibrium dissociation constant)
Ends that are not written are not given here.
Decide using Kd alone. Strictly below 70 nM: satisfied. Equal to or above 70 nM: not satisfied.

- GGNWFHLEW [ID8]: not satisfied
- LTAALNRNRW [ID36]: satisfied
- FTWYQLASY [ID13]: satisfied
- LSFSYTAQF [ID12]: not satisfied
- ASYVWVPLTW [ID20]: not satisfied

Here's the next entry for you.
Lookup: Consider the sequence FVLSWLTPW [ID28] . Is its Kd strictly less than 70 nM?
Found: satisfied

###

# tested system: SLA-1*04:01 (Sus scrofa, UniProt O19244)
# assay overview: pSLA binding affinity, modified ELISA
# Parameters: species or system swine
# run conditions: ELISA as above, only one successful affinity measurement, read-out: Aff. (nM), measured affinity (equilibrium dissociation constant)
Ends that are not written are not given here.
Decide using Kd alone. Strictly below 200 nM: 1.0. Equal to or above 200 nM: 0.0.

• YSFPGPPFF [ID4] = 1.0
• RTILGTNNF [ID1] = 0.0
• FTWYQLASY [ID13] = 1.0

Lookup: Consider the sequence ALATAPDGTY [ID46] . Is its Kd strictly less than 200 nM?
Found: 0.0

Lookup: Consider the sequence LSASSQTEY [ID38] . Is its Kd strictly less than 200 nM?
Found: 1.0

###

# tested system: SLA-2*04:01 (Sus scrofa)
# assay overview: pSLA binding affinity, modified ELISA
# Set-up: species or system swine
# run conditions: ELISA, 1–2 nM heavy chain, 15 nM hβ2m, peptide 0 to 13 μM, two nights at RT, average of successful measurements, read-out: Aff. (nM), measured affinity (average equilibrium dissociation constant)
Ends that are not written are not given here.
property name: Kd (nM)
The response must be a number in nM with no trailing unit.

# annotated cases, reported Kd shown
- YAQHMVLSY [ID2]: 60
- WGVYSAIETW [ID48]: 21400

Lookup: What Kd value was documented for this sequence, MSWRYSCTRY [ID44] ?
Found: 15

Lookup: What Kd value was documented for this sequence, NISAVFQTYY [ID23] ?
Found: 862
